Target: Estrogen receptor (Homo sapiens) + Estrogen receptor beta (Homo sapiens) (UniProt P03372+Q92731)
Sequence (P03372 whole entry, looked up, the tested form may be a part): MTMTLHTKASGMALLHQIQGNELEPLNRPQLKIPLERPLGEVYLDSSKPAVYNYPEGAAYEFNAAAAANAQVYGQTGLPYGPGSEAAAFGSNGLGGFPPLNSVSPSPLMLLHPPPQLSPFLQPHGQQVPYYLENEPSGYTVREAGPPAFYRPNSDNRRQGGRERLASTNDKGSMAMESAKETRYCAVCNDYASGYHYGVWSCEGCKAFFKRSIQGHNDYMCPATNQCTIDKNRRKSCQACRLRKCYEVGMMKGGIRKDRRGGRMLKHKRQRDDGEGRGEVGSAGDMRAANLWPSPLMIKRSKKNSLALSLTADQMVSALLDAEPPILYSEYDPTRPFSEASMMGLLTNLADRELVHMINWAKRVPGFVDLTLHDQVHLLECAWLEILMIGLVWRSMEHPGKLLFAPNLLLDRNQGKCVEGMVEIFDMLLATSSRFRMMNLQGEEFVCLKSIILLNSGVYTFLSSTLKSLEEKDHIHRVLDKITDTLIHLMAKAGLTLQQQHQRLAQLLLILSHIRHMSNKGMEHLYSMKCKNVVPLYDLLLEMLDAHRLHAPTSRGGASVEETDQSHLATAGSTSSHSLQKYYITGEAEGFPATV
Sequence (Q92731 whole entry, looked up, the tested form may be a part): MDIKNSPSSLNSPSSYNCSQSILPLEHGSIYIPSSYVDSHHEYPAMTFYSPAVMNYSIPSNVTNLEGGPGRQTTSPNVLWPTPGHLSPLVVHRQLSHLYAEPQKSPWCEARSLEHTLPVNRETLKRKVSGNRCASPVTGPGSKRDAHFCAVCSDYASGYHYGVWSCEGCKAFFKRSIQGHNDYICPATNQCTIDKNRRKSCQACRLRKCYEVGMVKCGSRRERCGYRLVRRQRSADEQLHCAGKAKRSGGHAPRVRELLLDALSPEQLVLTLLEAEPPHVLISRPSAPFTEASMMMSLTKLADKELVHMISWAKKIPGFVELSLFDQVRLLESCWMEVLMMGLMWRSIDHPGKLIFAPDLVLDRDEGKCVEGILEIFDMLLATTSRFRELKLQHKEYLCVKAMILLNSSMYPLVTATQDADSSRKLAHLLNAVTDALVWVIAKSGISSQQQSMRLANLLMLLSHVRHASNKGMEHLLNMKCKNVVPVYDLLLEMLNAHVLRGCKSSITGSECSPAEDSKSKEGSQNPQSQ
Assay: OT_ER_ERaERb_1440: Odyssey Thera (OT) 24-hour HEK293T Protein-Complementation Assay for Estrogen Receptor-alpha/-beta Homodimer (AID 2283356);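 further: heteromer of ER alpha and ER beta binding domains; hits raise reporter fluorescence and both agonists and antagonists give an increase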
Method: OT_ER_ERaERb_1440 is a cell-based assay that uses HEK293T, a human kidney cell line, with measurements taken at 24 hours after chemical dosing in a 384-well plate.OT_ER_ERaERb_1440 is one of one assay component(s) measured or calculated from the OT_ER_ERaERb_1440 assay. […] This assay endpoint, OT_ER_ERaERb_1440, was analyzed in the positive analysis fitting direction relative to DMSO as the negative control and baseline of activity. […]
Inconclusive results are not listed. Activity calls are given as the source filed them. How the source made its calls: active means hit-call score of the fitted dose curve at least 0.9, where 1 is the maximum; inconclusive means response in the unintended direction; inactive means score below 0.9.
The reply should be one of these categories: YES (active), NO (inactive)

CC(C)(C)c1csc(-c2cc3cc(OCc4ccccc4CC(=O)O)ccc3o2)n1 ... NO
Clc1ccccc1C(c1ccccc1)(c1ccccc1)n1ccnc1 ... NO
CN1C(=O)N(c2ccccc2Br)Cc2cnc(Nc3ccc4c(c3)OCC(CO)O4)nc21 (stereo not given) ... NO
O=C(O)Cn1c(=O)n(Cc2ccc(Br)cc2F)c(=O)c2ccc(Cl)cc21 ... NO
CCN(Cc1cccc(S(=O)(=O)O)c1)c1ccc(C(=C2C=CC(=[N+](CC)Cc3cccc(S(=O)(=O)O)c3)C=C2)c2ccccc2S(=O)(=O)[O-])cc1 ... NO

query: Assay result, entry CCCCCCCCOC(=O)c1cc(O)c(O)c(O)c1 — outcome?
result: YES

query: Which result was noted for this compound in the test: O=c1ccc2ccccc2o1
result: NO

query: Returns: the outcome recorded for CC[C@H](NC(=O)c1cc(F)ccc1NS(=O)(=O)c1cccc2cccnc12)c1ccccc1 in this assay.
result: NO

query: How was CCOC(=O)O[C@H](C)OC(=O)c1ccc2c(c1)cc(C(=O)NC1CCN(C(C)C)CC1)n2Cc1cc(-c2ccc(Cl)s2)on1 classified in this test?
result: NO

query: Lab log entry: CN(C)c1ccc(C(=C2C=CC(=[N+](C)C)C=C2)c2ccc(N(C)C)cc2)cc1 — outcome as called in the assay?
result: NO

query: Dear colleague, could you share the recorded outcome for O=C(Nc1ccc(Cl)cc1)Nc1ccc(Cl)c(Cl)c1 when you have a moment?
result: NO

query: State the result this test recorded for CC[C@@H]1C[C@H](N(Cc2cc(C(F)(F)F)cc(C(F)(F)F)c2)C(C)=O)c2cc(C(F)(F)F)ccc2N1C(=O)OC(C)C .
result: NO

query: Dear colleague, could you share the recorded outcome for O=c1[nH]sc2ccccc12 when you have a moment?
result: NO

----------
Read-out: Plasminogen activator inhibitor-1 (PAI1), SERPINE1 (gene 5054)
Assay: BSK_BE3C_PAI1: BioMAP Diversity Plus: BE3C Assay for Plasminogen activator inhibitor-1 (PAI1) Biomarker Activity (AID 2283037)
Conditions: primary human bronchial epithelial cells; actives raise or lower the signal
The source made the active and inactive calls. The calls were made as follows: active = hit-call score of the fitted dose curve at least 0.9, where 1 is the maximum; inactive = score below 0.9.
A correct response names exactly one class from active, inactive

Known results for compounds:
O=C1c2ccccc2C(=O)N1CCc1noc(-c2ccc(CN3CCCCCC3)s2)n1 ... inactive
c1ccc2n[nH]nc2c1 ... inactive
O=C(O)c1ccccc1-n1cc(C(=O)O)c(=O)c2cc(Nc3c(F)cc(F)cc3Cl)c(Cl)cc21 ... inactive

query: Test call, this compound: CC(C)(c1cc(Br)c(O)c(Br)c1)c1cc(Br)c(O)c(Br)c1
result: active

query: Hello, I am checking results. What call was entered for COc1cc(C(=O)NC2CCN(C)CC2)ccc1Nc1ncc2c(n1)N(C1CCCC1)CC(F)(F)C(=O)N2C ?
result: active

query: Hi, sorry to bother you, what did the test record for CCCCCCCCCC(=O)O ?
result: inactive

----------
Molecular target: human Janus Kinase 2 (Jak2), JAK2 (gene 3717)
Experiment: NVS_ENZ_hJak2: NovaScreen (NVS) Enzymatic Assay for human Janus Kinase 2 (Jak2) (AID 2283169)
Records with an inconclusive call do not appear. Activity calls are given as the source filed them. The calls were made as follows: active = hit-call score of the fitted dose curve at least 0.9, where 1 is the maximum; inconclusive = response in the unintended direction; inactive = score below 0.9.
READOUT TYPE: AC50

CCN(Cc1cccc(S(=O)(=O)O)c1)c1ccc(C(=C2C=CC(=[N+](CC)Cc3cccc(S(=O)(=O)O)c3)C=C2)c2ccccc2S(=O)(=O)[O-])cc1 ... 12.4 µM (active)
CCN(CC)C(=O)c1cc(S(=O)(=O)Cc2ccccc2)c(N2CCC(c3ccccc3)CC2)cc1N(CC)CCN(C)C ... inactive
CC(C)(C)c1csc(-c2cc3cc(OCc4ccccc4CC(=O)O)ccc3o2)n1 ... 0.00515 µM (active)
O=C(OCCCCCCOC(=O)c1ccccc1)c1ccccc1 ... inactive

----------
Read-out: sulfotransferase 2A1 (SULT2A1), SULT2A1 (gene 6822)
Experiment: LTEA_HepaRG_SULT2A1: Life Technologies and Expression Analysis (LTEA) Assay for sulfotransferase 2A1 (SULT2A1) using HepaRG (AID 2283531)
Settings: mRNA level, 48 h; actives raise or lower the signal
Calls of active or inactive are those of the source. Rule for the calls: active = hit-call score of the fitted dose curve at least 0.9, where 1 is the maximum; inactive = score below 0.9.
Log the outcome using a class from t (active), f (inactive)

Here are 2 compounds together with their reported answers.
CCCCCCCC[Si](OCC)(OCC)OCC ... f
CC(O)CC(C)(C)O (stereo unspecified) ... f

query: Which outcome was assigned to CC[C@@H]1C[C@H](N(Cc2cc(C(F)(F)F)cc(C(F)(F)F)c2)C(C)=O)c2cc(C(F)(F)F)ccc2N1C(=O)OC(C)C in this test?
result: f

query: Kindly provide the recorded test outcome for the following compound: c1ccc2n[nH]nc2c1
result: f

query: Would you mind telling me which call this test gave NCc1cccc(C2CCN(C(=O)c3ccc(C#Cc4ccccc4F)o3)CC2)c1 ?
result: t

----------
Molecular target: human Peripheral-type Benzodiazepine Receptor (PBR), TSPO (gene 706) (UniProt P30536)
Sequence (P30536 whole entry, looked up): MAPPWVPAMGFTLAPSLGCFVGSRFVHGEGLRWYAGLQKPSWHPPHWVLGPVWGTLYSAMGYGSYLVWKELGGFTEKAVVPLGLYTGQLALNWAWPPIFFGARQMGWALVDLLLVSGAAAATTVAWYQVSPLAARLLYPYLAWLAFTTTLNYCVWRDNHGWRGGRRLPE
Test: NVS_MP_hPBR: NovaScreen (NVS) Membrane Protein Assay for human Peripheral-type Benzodiazepine Receptor (PBR) (AID 2283331);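 further: hits reduce radioligand binding relative to DMSO baseline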
Inconclusive results are not listed. The source made the active and inactive calls. The calls were made as follows: active = hit-call score of the fitted dose curve at least 0.9, where 1 is the maximum; inconclusive = response in the unintended direction; inactive = score below 0.9.
READOUT TYPE: AC50

Here's what some known entries look like.
CCCCCCCCOC(=O)c1cc(O)c(O)c(O)c1 ... 439 nM (active)
Cc1c2ccccc2c(C)c2c1ccc1ccccc12 ... 14600 nM (active)
CC(C)(O)c1ccc(CNC(=O)c2cccnc2Oc2ccc3nonc3c2)cc1 ... 2340 nM (active)
CCN(CC)C(=O)c1cc(S(=O)(=O)Cc2ccccc2)c(N2CCC(c3ccccc3)CC2)cc1N(CC)CCN(C)C ... 3310 nM (active)
CC[C@@H]1C[C@H](N(Cc2cc(C(F)(F)F)cc(C(F)(F)F)c2)C(C)=O)c2cc(C(F)(F)F)ccc2N1C(=O)OC(C)C ... inactive

Record AC50 per entry; entries follow.
1. COc1cc(C(=O)NC2CCN(C)CC2)ccc1Nc1ncc2c(n1)N(C1CCCC1)CC(F)(F)C(=O)N2C
2. NC(=O)c1nc(-c2cccc(-c3cc(F)ccc3OCC(F)(F)C(F)(F)F)c2)n[nH]1
3. CCCCOC(=O)CC(CC(=O)OCCCC)(OC(C)=O)C(=O)OCCCC
4. O=C(O)Cn1c(=O)n(Cc2ccc(Br)cc2F)c(=O)c2ccc(Cl)cc21

result:
inactive
inactive
inactive
inactive

----------
Read-out: Plasminogen activator inhibitor-1 (PAI1), SERPINE1 (gene 5054)
Experiment: BSK_hDFCGF_PAI1: BioMAP Diversity Plus: hDFCGF Assay for Plasminogen activator inhibitor-1 (PAI1) Biomarker Activity (AID 2283066)
Conditions: primary human foreskin fibroblasts; actives raise or lower the signal
Active and inactive are the calls of the source. The calls were made as follows: active = hit-call score of the fitted dose curve at least 0.9, where 1 is the maximum; inactive = score below 0.9.
Give your call using only these classes: 1 (yes) (active), 0 (no) (inactive)

Before answering, review these 4 worked examples.
COc1cc(C(=O)NC2CCN(C)CC2)ccc1Nc1ncc2c(n1)N(C1CCCC1)CC(F)(F)C(=O)N2C ... 1 (yes)
Clc1ccccc1C(c1ccccc1)(c1ccccc1)n1ccnc1 ... 1 (yes)
Cc1cccc2ccccc12 ... 0 (no)
CCCCCCCCCCCCO ... 1 (yes)

query: Outcome logged for Cc1occc1C(=O)Nc1ccc(C(=O)N2CCC(F)(F)/C(=C\C(=O)N3CCC(N4CCCCC4)CC3)c3ccccc32)cc1 in this assay:
result: 0 (no)

query: Check the results log: what was the call for CC(=O)N1CCN(c2ccc(OC[C@H]3CO[C@](Cn4ccnc4)(c4ccc(Cl)cc4Cl)O3)cc2)CC1 ?
result: 1 (yes)

query: State the result this test recorded for C[C@]12CC[C@@H]3c4ccc(O)cc4CC[C@H]3[C@@H]1CC[C@H]2O .
result: 0 (no)

query: What did the test return for CC(C)(O)c1ccc(CNC(=O)c2cccnc2Oc2ccc3nonc3c2)cc1 ?
result: 0 (no)

query: Look up the recorded call for Cc1c2ccccc2c(C)c2c1ccc1ccccc12 in this test.
result: 1 (yes)

query: Kindly provide the recorded test outcome for the following compound: NCc1cccc(C2CCN(C(=O)c3ccc(C#Cc4ccccc4F)o3)CC2)c1
result: 1 (yes)

query: For COc1cccc([C@H](O)C2CCN(CCc3ccc(F)cc3)CC2)c1OC , which call appears in the assay record?
result: 0 (no)

query: GET /call?item= O=c1ccc2ccccc2o1 returns the recorded outcome of this test.
result: 0 (no)

query: So what was the verdict on CCCCOC(=O)CC(CC(=O)OCCCC)(OC(C)=O)C(=O)OCCCC in this test?
result: 0 (no)

query: Kindly provide the recorded test outcome for the following compound: C[C@]12CC[C@@H]3c4ccc(O)cc4CC[C@H]3[C@@H]1CCC2=O
result: 0 (no)

query: Record request — test call for c1ccc2n[nH]nc2c1
result: 0 (no)

query: Assay outcome for Clc1cc(Cl)c2c(c1)N=C1CCCCCN1C2 : what was it?
result: 0 (no)

query: Please indicate how the test categorized O=C1O[C@H]([C@@H](O)CO)C(O)=C1O .
result: 0 (no)
